- Test system: HOP-62 NSCLC
- test-method-notes: NCI-60 one-dose screen, 48 h (100 = growth as untreated, 0 = no growth, -100 = all killed)
- condition-parameters: 10 µM unless noted
About 83,000 compounds went through this panel and 20% of them were active in at least one assay; those are over-represented in the sample as a whole.
Binary classification by growth, with 90% as an inclusive lower bound for Satisfied; all other cases are Not satisfied.

Tell me whether growth is at least 90% here: `CC(=O)Nc1c(Cl)cc2c(c1Cl)Cc1cc([N+](=O)[O-])ccc1-2`
Not satisfied

Now try `O=C(CSc1nnc(-c2cc(-c3ccccc3)nc3ccccc23)o1)c1ccc(Br)cc1` .
Satisfied

Queued: `O=c1[nH]cc(Nc2cc(Cl)c3nonc3c2[N+](=O)[O-])c(=O)[nH]1`
Satisfied

Likewise for `COc1ccc(-c2nc3sc4c(c3c(=O)[nH]2)CCCCCC4)cc1` ?
Not satisfied

For `Cc1ccccc1NC(=O)N/C(N)=N/c1nc2ccccc2s1` then?
Not satisfied

Then what about the compound COc1ccc(C2=NN(C(C)=O)C(c3cccc(Nc4ccnc5cc(Cl)ccc45)c3)C2)cc1 (configuration not stated) ?
Not satisfied

Now the same for `O=C(Nc1ccccc1)P(=O)(O)c1ccccc1`
Satisfied

Moving on to `N#Cc1ccccc1C#Cc1ccccc1C#Cc1ccc(OCCCCCCOc2ccc(C#Cc3ccccc3C#Cc3ccccc3C#N)cc2)cc1`
Satisfied

Param item: `O=C(COc1cccc(/C=C2\Cc3ccccc3C2=O)c1)c1ccc(Cl)cc1`
Satisfied

Ok, now `Cc1cc2c(cc1C)[n+](Cc1ccc3ccccc3c1)cn2Cc1ccc2ccccc2c1`
Not satisfied

Repeat for the following compound: `Cc1csc(C#Cc2cncc(O)c2)n1`
Satisfied

And then `Cc1sc2nc(NCCc3cccs3)[nH]c(=O)c2c1C` , what is it?
Not satisfied

Repeat with O=C(NC1CCS(=O)(=O)C1)c1ccc(C(=O)c2ccccc2)cc1 (configuration not stated)
Satisfied

Next up: `O=[N+]([O-])c1ccc(NS(=O)(=O)c2ccc(Cl)c(Cl)c2)cc1`
Not satisfied

// repeat for `C1=C(Cc2ccccc2)n2cnc3ncnc(c32)S1` and report
Not satisfied

And the next one, Nc1c(C(=O)Nc2cccc(Cl)c2)sc2nc3c(cc12)C(O)CCC3 (configuration not stated) ?
Not satisfied

And CC(=O)N1N=C(c2ccc(Nc3ccnc4cc(Cl)ccc34)cc2)CC1c1ccc(Cl)cc1 (configuration not stated) ?
Not satisfied

Check `O=C(c1ccc(Cl)cc1)c1ccc(Cl)cc1` too.
Satisfied

Also COc1cc(/C=C2\CN(C)CC3=C2Nc2nc(SC)[nH]c(=O)c2C3c2cc(OC)c(OC)c(OC)c2)cc(OC)c1OC (configuration not stated) ?
Not satisfied

What about this compound? `NC(=O)NC1(C(=O)O)CCCC1`
Satisfied
